# System: MS2 coat protein
# TEST SUMMARY: apparent Kd, MS2 coat protein; higher = weaker binding; RNA-MaP array; theophylline 2 mM where present
# STUDY CONDITIONS: ligand present: theophylline; designed as: ON switch for theophylline
Answer f if apparent Kd is under 50 nM, and t if it is 50 nM or more.

SEQUENCE CHAIN	ASSIGNED LABEL
UUAAUGGAGCUUUAAUUUACGAUUUCUGAUACCAGUGUUUCAUUUCACCCUUGGCAGCAGUGACAUGAGGAUCACCCAUGUAAUA	f
GGUGGCGUGACGGAUACCAGCCACCGCCGCAAGGCCACAUGAGGAUCACCCAUGUUGGGUGGCCCUUGGCAGCUGUCGUGCGGCG	t
AUCGCACCUGGUGAUACCAGCGUUUGCUCGCGACAUGAGGAUCACCCAUGUGGCCAGUGAUGCCCUUGGCAGCAUGGUCGGUGCA	f
GGUGAUCCGUGCUGCCGGAUCAUCGGUGAUACCAGCAUCGAAAGAUGCCCUUGGCAGCACCAACAUGAGGAUCACCCAUGUAAUA	t
CGAUCUUUCGAAAGAAGGAUCGAGUCUGAUACCAGAGACGAAAGUCUCCCUUGGCAGCAGUGCCAACAUGAGGAUCACCCAUGUU	f
AUGUCGUUGAAUACAGCGGCAUGGAGUGAUACCAGAAUGAUCAAAUUCCCUUGGCAGCAUGACAUGAGGAUCACCCAUGUUCGAU	t
UGUAACAUGAGGAUCACCCAUGUGAGUGAUACCAGAUAAGUAGUAGUCCCUUGGCAGCAUAUUGGGCGAGUGUAUAGUCUAUGCG	t
GCCAGACAUGAGGAUCACCCAUGUAGCGAUACCAGCUCUGUUGUGAGCCCUUGGCAGCGCACUGGCAUCGUAGGUGAUCCAAUAA	t
UCUUUCUAUGUAGAUACCAGCAUGUUAUAUUUCUAAUGACAUGAGGAUCACCCAUGUAAAUGCCCUUGGCAGCUACAUUUUCUUU	f

Could you tell me if the measured apparent Kd of GGGUGCGGGAUAGAUACCAGUGCCUUAAAAUAGGCACAUGAGGAUCACCCAUGUACCGGGCGCCCUUGGCAGCUAGUACCAUCCA reaches 50 nM or more? t

###

Each entry below lists one item and its recorded apparent Kd value.
# Tested on: MS2 coat protein
# TEST SUMMARY: apparent Kd, MS2 coat protein; higher = weaker binding; RNA-MaP array
# STUDY CONDITIONS: ligand present: flavin mononucleotide; designed as: OFF switch for flavin mononucleotide
Your answer is read as nM, so omit the unit and give the number.

Below: 3 sequences and their reported apparent Kd.
SEQUENCE CHAIN	OUTCOME MEASURE	OBSERVED RESULT
UACAUUCGUCAGGAUAUCCAUCAGCCAGGCCUCGGAGAAGGGACUACAUGAGGAUCACCCAUGUGUAACCUCGU	apparent Kd	88.8
CUGAACUAAGGAUAUACGGCCCUCAAUUAUAAUUCUGUGAAACAUGAGGAUCACCCAUGUAGAAGGUAGUCGAC	apparent Kd	18.1
CACAGGUCAGUAGGAUAUGCUACAUGAGGAUCACCCAUGUGGUGGUAUAUGCGUCUAGGCGCAAAGCAGAAGGACUUCCAGGUG	apparent Kd	146

Which measured apparent Kd belongs to UAGUUGCAUACAUGAGGAUCACCCAUGUUUUAAUGGGUAACUAGAAGGUGUUGACGUUGGCUAAACAAGGAUAUAGUUCGUGCU , tested on MS2 coat protein? 46.5

Lab request: please report apparent Kd under test system MS2 coat protein for AGUACGUCAGGAUAUCGCGUACGAAACAUGAGGAUCACCCAUGUGGUGCCGUGGCUCUAUCGAGAAGGGACUUGGC 12.6

Quick check: apparent Kd on MS2 coat protein, item CUCCUCACCGUGAGGAUAUAGUAUUCCGGUUGUUACUAGAAGGCACAUGAGGAUCACCCAUGUUACGGUUCCCA ? 50.6
